Reference source: the supplement of paper PMC13380429

Tested on: U2OS
assay.summary: cell viability relative to DMSO; higher = less toxic
experimental.conditions: 72 h; 100 nM
metric: cell viability (%)
Numbers only, in %.

| molecule | units.text | cell viability |
| --- | --- | --- |
| C=C[C@](C)(O)CC[C@@H]1[C@@]2(C)CCCC(C)(C)[C@@H]2CC[C@@]1(C)O | % | 96.4 |

Give one value of cell viability per listed molecule.
1. CCOC(=O)c1ncc2[nH]c3ccc(OCc4ccccc4)cc3c2c1COC
2. Nc1nc(=O)c2c([nH]1)NCC(CNc1ccc(C(=O)N[C@@H](CCC(=O)O)C(=O)O)cc1)N2C=O (some centres undefined)

1: 99; 2: 98.1

Please respond with reported cell viability (system U2OS) for CS(=O)(=O)c1ccc([C@@H](O)[C@@H](CO)NC(=O)C(Cl)Cl)cc1 .
105

* * *

Tested on: HepG2
assay.summary: drug sensitivity score (DSS) for viability; higher = more toxic; extreme values may be limits of the assay
experimental.conditions: 72 h
Would you mind telling me the reported drug sensitivity score of each entry?
Answers are plain numbers.

| compound | drug sensitivity score |
| --- | --- |
| N=C(N)NC(=N)Nc1ccccc1 [1-phenylbiguanide] | 0 |
| COc1ccc2cc(OCC3(C(=O)O)CN(C(=O)c4ccc(F)cc4)C3)ccc2c1 | 0 |
| Cc1cccc(CN2CCN(C(c3ccccc3)c3ccc(Cl)cc3)CC2)c1 (centres undefined) [meclizine] | 0 |
| CCc1nc(C)ccc1O [emoxipin] | 0 |
| CN(C)CCCO[C@@H]1[C@H]2OC(C)(C)O[C@H]2O[C@@H]1[C@H](O)CO [amiprilose] | 0.2 |
| O=C1[C@@H]2[C@H]3CC[C@H](C3)[C@@H]2C(=O)N1C[C@@H]1CCCC[C@H]1CN1CCN(c2nsc3ccccc23)CC1 [lurasidone] | 0.1 |
| CCCN1CCC[C@@H]2Cc3n[nH]cc3C[C@H]21 [quinpirol-(-)] | 0 |
| Cn1cnc(-c2cc3nccc(Oc4ccc(NC(=S)NC(=O)Cc5ccccc5)cc4F)c3s2)c1 [MGCD-265] | 0.8 |

Then there is this compound:
Determine its reported drug sensitivity score: C[C@]12CC[C@@H]3c4ccc(OS(=O)(=O)O)cc4CC[C@H]3[C@@H]1CCC2=O [estropipate]
0

* * *

System: A549-ACE2
assay.summary: drug-induced phospholipidosis relative to tamoxifen; higher = more phospholipidosis
experimental.conditions: 10 µM; 72 h
metric: drug-induced phospholipidosis (%)
Numbers only, in %.

See these solved cases before continuing.
| compound | value |
| --- | --- |
| c1cnc(N2CCN(Cc3ccc4c(c3)OCO4)CC2)nc1 | 1.92 |
| c1ccc(-c2nn3c(c2-c2ccnc4cc(OCCN5CCOCC5)ccc24)CCC3)nc1 | 29.5 |
| OCCN1C[C@H](O)[C@@H](O)[C@H](O)[C@H]1CO | 0.978 |

Determine its reported drug-induced phospholipidosis: CC(NCCC(c1ccccc1)c1ccccc1)c1ccccc1 (centres undefined)
87.3

* * *

Test system: U2OS
assay.summary: cell viability relative to DMSO; higher = less toxic
experimental.conditions: 72 h; 100 nM
Would you mind telling me the reported cell viability of each entry?
Answers are plain numbers, in %.

Give one value of cell viability per listed compound.
1. Cc1cnc(-c2ccccc2C(C)C)nc1NCc1ccc(-n2ccnn2)cc1 [ML323]
2. Clc1ccc(CSC(Cn2ccnc2)c2ccc(Cl)cc2Cl)cc1 (stereo not given) [sulconazole]
3. O=C(NC1CCN(CCc2c[nH]c3ccccc23)CC1)c1ccccc1 [indoramin]
4. O=C1c2cccnc2OC[C@@H]2CCCN12
5. CC[C@]12CCCN3CCc4c(n(c5ccccc45)C(=O)C1)[C@@H]32 [vinburnine]
6. O=c1cc[nH]c(=O)[nH]1 [uracil]

1: 95.8; 2: 96; 3: 97.5; 4: 95.9; 5: 96.7; 6: 94.8
